# method-notes: self-splicing fitness, log relative to wild type (ln ratio); higher = more splicing; Tetrahymena group I intron in knt gene, E. coli kanamycin selection, DiMSum; sequences stand for … in CUCUCU…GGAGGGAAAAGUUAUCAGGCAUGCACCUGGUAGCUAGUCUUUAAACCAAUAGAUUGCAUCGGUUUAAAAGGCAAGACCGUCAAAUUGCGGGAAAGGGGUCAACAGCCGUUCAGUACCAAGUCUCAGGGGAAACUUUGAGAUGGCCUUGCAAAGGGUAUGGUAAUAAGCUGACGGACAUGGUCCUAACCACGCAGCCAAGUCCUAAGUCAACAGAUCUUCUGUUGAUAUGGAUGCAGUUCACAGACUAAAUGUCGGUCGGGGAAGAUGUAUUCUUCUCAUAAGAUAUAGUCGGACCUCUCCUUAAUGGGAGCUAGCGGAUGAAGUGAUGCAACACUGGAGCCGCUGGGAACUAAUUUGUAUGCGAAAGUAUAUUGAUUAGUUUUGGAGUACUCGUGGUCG;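 further: selection with 25 µg/mL kanamycin versus none on LB agar overnight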
# assay-context: 30 °C
# Lookup of reported self-splicing fitness (ln) keyed by entry
Quick one: just the number, no unit, thanks!

As a guide, the following entries are already answered.
| sequence-text | self-splicing fitness (ln) |
| --- | --- |
| CUAUAGCAAUAUUACGAGUG | -0.752 |
| CUCUAGCAAUAUUACGUUAA | -2.75 |
| GCAAAGCAAUAUUACGCCGA | -2.04 |
| AUUGAGCAAUAUUACGCUGU | -1.97 |
| GGAUAGCAAUAUUACGAUAA | -1.51 |
| UGAUAGCAAUAUUACGAAGC | -3.24 |
| AUAUAGCAAUAUUACGACGA | -1.1 |
| AUUCAGCAAUAUUACGAUCU | -0.272 |

Next up:
GET /value?item= "AUUGAGCAAUAUUACGCAAC" &field=self-splicing fitness (ln) returns -3.42

====

# method-notes: self-splicing fitness, log relative to wild type (ln ratio); higher = more splicing; Tetrahymena group I intron in knt gene, E. coli kanamycin selection, DiMSum; sequences stand for … in CUCUCU…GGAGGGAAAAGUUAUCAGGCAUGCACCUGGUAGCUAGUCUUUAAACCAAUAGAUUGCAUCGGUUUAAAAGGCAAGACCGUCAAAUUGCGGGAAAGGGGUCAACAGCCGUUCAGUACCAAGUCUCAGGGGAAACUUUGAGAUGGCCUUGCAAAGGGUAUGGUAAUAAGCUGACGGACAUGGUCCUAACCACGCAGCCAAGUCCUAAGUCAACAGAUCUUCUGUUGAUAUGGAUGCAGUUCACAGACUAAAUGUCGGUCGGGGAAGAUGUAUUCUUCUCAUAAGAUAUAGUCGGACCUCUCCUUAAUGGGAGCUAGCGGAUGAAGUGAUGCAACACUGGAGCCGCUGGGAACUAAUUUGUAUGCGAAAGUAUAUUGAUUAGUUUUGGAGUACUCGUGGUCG
# assay-context: 30 °C
Kind request: treat -3 as inclusive, so self-splicing fitness (ln) at -3 or higher is t, anything lower is f.

A selection of reference data follows.
| sequence-text | group-label |
| --- | --- |
| AGGCAGCAAUAUUACGACAC | t |
| CCAUAGCAAUAUUACGACGU | f |
| UGUUAGCAAUAUUACGUUAU | t |
| UUACAGCAAUAUUACGCAAU | t |
| AAUCAGCAAUAUUACGUGUC | t |
| GUACAGCAAUAUUACGUGCU | f |

Pending sequence:
Query string: Please check the record "AUCUAGCAAUAUUACGCGCA" and state if its self-splicing fitness (ln) is at or above -3.
Result string: t

====

# method-notes: self-splicing fitness, log relative to wild type (ln ratio); higher = more splicing; Tetrahymena group I intron in knt gene, E. coli kanamycin selection, DiMSum; sequences stand for … in CUCUCU…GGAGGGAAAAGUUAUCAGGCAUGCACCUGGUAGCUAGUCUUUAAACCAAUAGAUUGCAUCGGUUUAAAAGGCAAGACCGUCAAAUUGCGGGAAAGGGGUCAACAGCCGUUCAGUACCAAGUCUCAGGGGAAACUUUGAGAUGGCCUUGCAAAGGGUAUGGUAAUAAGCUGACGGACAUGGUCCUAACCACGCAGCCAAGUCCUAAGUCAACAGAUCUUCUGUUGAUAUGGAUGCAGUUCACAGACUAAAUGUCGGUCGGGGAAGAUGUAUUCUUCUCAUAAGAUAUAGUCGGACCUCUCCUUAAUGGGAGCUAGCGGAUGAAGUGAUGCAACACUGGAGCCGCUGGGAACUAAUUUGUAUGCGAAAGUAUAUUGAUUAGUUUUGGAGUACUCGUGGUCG
# assay-context: 37 °C
readout-type: self-splicing fitness (ln)
Quick one: just the number, no unit, thanks!

As a guide, the following entries are already answered.
| sequence-text | self-splicing fitness (ln) |
| --- | --- |
| GUAAAGCAAUAUUACGCUGC | -1.97 |
| CUAUAGCAAUAUUACGGCAU | -2.37 |
| GAAAAGCAAUAUUACGACCC | -0.182 |

GET /value?item= "UGGCAGCAAUAUUACGCUCG" &field=self-splicing fitness (ln) returns -0.0749

====

# method-notes: self-splicing fitness, log relative to wild type (ln ratio); higher = more splicing; Tetrahymena group I intron in knt gene, E. coli kanamycin selection, DiMSum; sequences stand for … in CUCUCU…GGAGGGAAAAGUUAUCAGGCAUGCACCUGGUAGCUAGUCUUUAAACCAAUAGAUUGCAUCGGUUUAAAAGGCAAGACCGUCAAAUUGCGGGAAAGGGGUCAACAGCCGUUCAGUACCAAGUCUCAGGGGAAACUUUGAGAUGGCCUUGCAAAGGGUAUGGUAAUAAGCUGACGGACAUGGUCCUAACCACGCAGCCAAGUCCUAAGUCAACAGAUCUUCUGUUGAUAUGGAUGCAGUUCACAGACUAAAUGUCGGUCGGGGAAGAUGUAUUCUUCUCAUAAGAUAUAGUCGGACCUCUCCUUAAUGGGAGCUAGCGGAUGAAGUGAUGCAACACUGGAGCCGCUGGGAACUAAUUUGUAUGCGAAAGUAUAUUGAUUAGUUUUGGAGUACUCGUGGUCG
# assay-context: 30 °C
readout-type: self-splicing fitness (ln)
Quick one: just the number, no unit, thanks!

| sequence-text | readout-type | measured-result |
| --- | --- | --- |
| UUUCAGCAAUAUUACGUUGU | self-splicing fitness (ln) | -3.23 |
| AGUCAGCAAUAUUACGCCCC | self-splicing fitness (ln) | 0.28 |
| UGACAGCAAUAUUACGUGCG | self-splicing fitness (ln) | -1.12 |
| GGACAGCAAUAUUACGAUGG | self-splicing fitness (ln) | -2.41 |
| AGCCAGCAAUAUUACGCGGC | self-splicing fitness (ln) | -3.54 |

Next up:
GET /value?item= "AGCAAGCAAUAUUACGAGAC" &field=self-splicing fitness (ln) returns -4.19

====

# method-notes: self-splicing fitness, log relative to wild type (ln ratio); higher = more splicing; Tetrahymena group I intron in knt gene, E. coli kanamycin selection, DiMSum; sequences stand for … in CUCUCU…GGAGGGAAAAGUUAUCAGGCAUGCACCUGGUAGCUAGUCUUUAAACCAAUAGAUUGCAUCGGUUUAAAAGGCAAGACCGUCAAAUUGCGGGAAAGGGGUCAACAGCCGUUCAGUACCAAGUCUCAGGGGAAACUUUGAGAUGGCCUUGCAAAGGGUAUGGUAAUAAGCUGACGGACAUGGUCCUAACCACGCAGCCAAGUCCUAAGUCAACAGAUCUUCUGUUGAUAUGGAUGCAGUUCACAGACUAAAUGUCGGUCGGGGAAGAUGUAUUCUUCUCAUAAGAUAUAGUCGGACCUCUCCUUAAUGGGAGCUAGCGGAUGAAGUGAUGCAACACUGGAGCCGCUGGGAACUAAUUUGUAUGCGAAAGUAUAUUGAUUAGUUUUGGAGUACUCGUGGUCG
# assay-context: 30 °C
Kind request: treat -2 as inclusive, so self-splicing fitness (ln) at -2 or higher is satisfied, anything lower is not satisfied.

A selection of reference data follows.
| sequence-text | group-label |
| --- | --- |
| UUCUAGCAAUAUUACGGCUG | not satisfied |
| ACUGAGCAAUAUUACGUCAG | not satisfied |
| ACACAGCAAUAUUACGCCCA | satisfied |
| CGGAAGCAAUAUUACGACCG | not satisfied |
| AUUAAGCAAUAUUACGCUGG | satisfied |

Query string: Please check the record "AUUGAGCAAUAUUACGGGUG" and state if its self-splicing fitness (ln) is at or above -2.
Result string: not satisfied

Query string: Please check the record "CUCAAGCAAUAUUACGGCAG" and state if its self-splicing fitness (ln) is at or above -2.
Result string: not satisfied

Query string: Please check the record "GCGUAGCAAUAUUACGCAUA" and state if its self-splicing fitness (ln) is at or above -2.
Result string: not satisfied
